Consider the following compounds and their measured % Remaining at 0 min readings.
# ASSAY: Stability in Mouse Plasma
# Format: in vitro ADME
# CONDITION SUMMARY: pooled mouse plasma, 37° C., peptides 100 DM, 0 min
Non-standard residues stand in square brackets, D forms with d. Residues, ends and D or L forms follow the SMILES beside them.

The examples below pair each entry with its known result.
COMPOUND	OBSERVED RESULT
CC[C@H](C)[C@H](NC(=O)[C@H](C)NC(=O)[C@H](CO)NC(=O)CNC(=O)[C@@H]1CCCN1C(=O)[C@H](CC(C)C)NC(=O)[C@H](CCCNC(=N)N)NC(=O)[C@@H](N)CCSC)C(=O)N[C@@H](CC(C)C)C(=O)N[C@H](C(=O)N[C@@H](CC(N)=O)C(=O)N1CCC[C@H]1C(=O)N[C@H](C(=O)N[C@@H](CC(C)C)C(=O)NCC(=O)N[C@@H](Cc1c[nH]c2ccccc12)C(=O)N[C@H](C(=O)N[C@@H](Cc1c[nH]c2ccccc12)C(=O)N[C@H](C(=O)O)C(C)C)C(C)C)C(C)C)[C@@H](C)O [compound 7] (H-MRLPGSAILTNPVLGWVWV-OH)	100%
CC[C@H](C)[C@H](NC(=O)[C@H](C)NC(=O)[C@H](CO)NC(=O)CNC(=O)[C@@H]1CCCN1C(=O)[C@H](CC(C)C)NC(=O)[C@@H](N)CCCNC(=N)N)C(=O)N[C@@H](CC(C)C)C(=O)N[C@H](C(=O)N[C@@H](CC(N)=O)C(=O)N1CCC[C@H]1C(=O)N[C@H](C(=O)N[C@@H](CC(C)C)C(=O)NCC(=O)N[C@@H](Cc1c[nH]c2ccccc12)C(=O)N[C@H](C(=O)N[C@@H](Cc1c[nH]c2ccccc12)C(=O)N[C@H](C(=O)O)C(C)C)C(C)C)C(C)C)[C@@H](C)O [compound 8] (H-RLPGSAILTNPVLGWVWV-OH)	100%

Qu. Give % Remaining at 0 min for the following compound: CC[C@H](C)[C@H](NC(=O)[C@@H](C)NC(=O)[C@H](CO)NC(=O)CNC(=O)[C@@H]1CCCN1C(=O)[C@H](CC(C)C)NC(=O)[C@@H](N)CCCNC(=N)N)C(=O)N[C@@H](CC(C)C)C(=O)N[C@H](C(=O)N[C@@H](CC(N)=O)C(=O)N1CCC[C@H]1C(=O)N[C@H](C(=O)N[C@@H](CC(C)C)C(=O)NCC(=O)N[C@@H](Cc1c[nH]c2ccccc12)C(=O)N[C@H](C(=O)O)C(C)C)C(C)C)[C@@H](C)O [compound 10] (H-RLPGS[dA]ILTNPVLGWV-OH)
Ans. 100%

----------
# ASSAY: Stability in Mouse Plasma
# Assay type: in vitro ADME
# CONDITION SUMMARY: pooled mouse plasma, 37° C., peptides 100 DM, 0 min
# Experimental: Peptides (100 DM) were incubated in pooled mouse plasma at 37° C. and samples were removed and immediately analyzed for the concentration of intact peptide by LC/MS/MS over the course of 3 hours. The percent of peptide remaining in plasma at each time point was calculated relative to the initial peak area (Table 9).
Non-standard residues stand in square brackets, D forms with d. Residues, ends and D or L forms follow the SMILES beside them.
MEASURED PARAMETER: % Remaining at 0 min (%)
Field: numeric (%). Do not append units.

Qu. Give % Remaining at 0 min for the following compound: CC[C@H](C)[C@H](NC(=O)[C@@H](C)NC(=O)[C@H](CO)NC(=O)CNC(=O)[C@@H]1CCCN1C(=O)[C@H](CC(C)C)NC(=O)[C@@H](N)CCCNC(=N)N)C(=O)N[C@@H](CC(C)C)C(=O)N[C@H](C(=O)N[C@@H](CC(N)=O)C(=O)N1CCC[C@H]1C(=O)N[C@H](C(=O)N[C@@H](CC(C)C)C(=O)NCC(=O)N[C@@H](Cc1c[nH]c2ccccc12)C(=O)N[C@H](C(=O)N[C@@H](Cc1c[nH]c2ccccc12)C(=O)N[C@H](C(=O)O)C(C)C)C(C)C)C(C)C)[C@@H](C)O [compound 9] (H-RLPGS[dA]ILTNPVLGWVWV-OH)
Ans. 100

Data origin: patent US20220324912A1
